system: MCF7; test: NCI tumour cell line growth inhibition, 48 h
Calls of active or inactive are those of the source. Rule as the data show it: active = GI50 up to about 1.1 µM and inactive = higher.
Outcomes: active, inactive

[
  {
    "MOLECULE": "CC(=O)C(=C(c1ccccc1)c1ccccc1)c1ccccc1",
    "CAT": "inactive"
  },
  {
    "MOLECULE": "OCCOc1ccc(-c2cc(-c3ccccn3)nc(-c3ccccn3)c2)cc1",
    "CAT": "active"
  },
  {
    "MOLECULE": "COC1=CC(=O)c2nc3ccccc3c3ccnc1c23",
    "CAT": "inactive"
  },
  {
    "MOLECULE": "CCOC(=O)CNC(=O)CNC(=O)CNC(=O)CNNc1c(OCc2ccccc2)c(=O)c1=O",
    "CAT": "inactive"
  },
  {
    "MOLECULE": "C=C1C(=O)C2(C)OC2(C)C1C(=O)O (stereo unspecified)",
    "CAT": "inactive"
  },
  {
    "MOLECULE": "O=C(O)c1c(-c2c3ccc(=O)cc-3oc3cc(O)ccc23)cc2ccccc2c1-c1ccccc1",
    "CAT": "inactive"
  },
  {
    "MOLECULE": "O=C([O-])Cc1ccccc1.[Na+] [SODIUM PHENYLACETATE]",
    "CAT": "inactive"
  },
  {
    "MOLECULE": "CCS(=O)(=O)Nc1ccc(Nc2c3ccccc3nc3ccccc23)c(OC)c1",
    "CAT": "active"
  },
  {
    "MOLECULE": "COc1cc2c(cc1OC)C1C3CCCCC3CCN1CC2 (stereo unspecified)",
    "CAT": "active"
  },
  {
    "MOLECULE": "COCN1C(=O)[C@@H]2CCCN2C(=O)c2ccc([N+](=O)[O-])cc21",
    "CAT": "inactive"
  },
  {
    "MOLECULE": "Sc1nnc(Cc2ccc(Cl)cc2)[nH]1",
    "CAT": "inactive"
  }
]

* * *

test system: NCI/ADR-RES; test: NCI tumour cell line growth inhibition, 48 h
Calls of active or inactive are those of the source. No stated cut-off is given here; in the data, active = GI50 up to about 1.1 µM and inactive = higher.

[
  {
    "COMPOUND": "COc1cc(O)c2c(=O)c(OC)c(-c3ccc(OC)c(O)c3)oc2c1",
    "GI50": "> 100 µM (inactive)"
  },
  {
    "COMPOUND": "Cc1occc1C(=S)Nc1ccc(Cl)c(C(=O)OC(C(C)C)C(C)C)c1",
    "GI50": "9.98 µM (inactive)"
  },
  {
    "COMPOUND": "CC1(C)N=C(N)N=C(N)N1c1cccc(OCc2cccc([N+](=O)[O-])c2)c1",
    "GI50": "> 100 µM (inactive)"
  },
  {
    "COMPOUND": "C=CCn1c(-c2ccc([N+](=O)[O-])cc2)cs/c1=N\\C(P(=O)(O)O)P(=O)(O)O",
    "GI50": "> 100 µM (inactive)"
  },
  {
    "COMPOUND": "CC(=O)NNC(=S)N/C=C1/C(=O)Oc2ccccc2C1=O",
    "GI50": "> 100 µM (inactive)"
  },
  {
    "COMPOUND": "CCCc1c(O)nc(Nc2nc3ccccc3[nH]2)[nH]c1=O",
    "GI50": "> 100 µM (inactive)"
  },
  {
    "COMPOUND": "O=C1C2C3C4C1C1C2[C@H](OCc2ccccc2)C3C1[C@H]4OCc1ccccc1 (stereo not given in full)",
    "GI50": "19.7 µM (inactive)"
  },
  {
    "COMPOUND": "CCCCCC1CC=CC(=O)O1 (stereo not given)",
    "GI50": "5.73 µM (inactive)"
  },
  {
    "COMPOUND": "CC1=C(C(=O)OC23CC4CC(CC(C4)C2)C3)C(c2ccccc2OC(F)F)C(C(=O)OC23CC4CC(CC(C4)C2)C3)=C(C)N1 (stereo not given)",
    "GI50": "> 100 µM (inactive)"
  },
  {
    "COMPOUND": "Nc1cc(O)c2c(c1O)C(=O)C=CC2=O",
    "GI50": "10 µM (inactive)"
  }
]
